molecular target: Torsin-1A (Homo sapiens); assay: torsin A mutant lysate binding on microarrays – cell lysate, small-molecule microarray, COS7 lysate, 635/667 nm fluorescence, primary screen (AID 1150); settings: COS7 hTOR1A mutant lysate, 635 nm fluorescence, higher = more signal;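 also: score pools 667 nm emission and signal to noise measuring lysate protein binding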
value_kind: composite z-score

compound	recorded_result
O=C1C2C=CC(C(O)c3ccc(-c4ccccc4)s3)N(Nc3ccccc3F)C2C(=O)N1c1ccccc1 (stereo not drawn)	0.404
C=CCN1Cc2ccccc2C[C@@]2(COC(c3ccc(OCCCO)cc3)=N2)C1=O	0.827
CN1C(=O)C2C(C1=O)C1C=C(c3ccc(CO)cc3)C2C(C2CC2)N1Cc1cc2c(cc1Br)OCO2 (stereo not drawn)	1.65
O=C1OCC=C[C@H]2OC34C=CCN(Cc5ccccc5)C(=O)[C@H]3N(CCCO)C(=O)[C@@H]4[C@@H]12 (stereo partly drawn)	-0.239
CCCCCCC#C[Si](O[C@H](c1ccccc1)c1cn([C@H](C)c2ccccc2)nn1)(C(C)C)C(C)C	1.26
COc1ccc(C(=O)Nc2cccc(CN3C(=O)[C@@]4(O[C@@H](CCn5cc([C@H](O)c6ccccc6)nn5)[C@H]([Si](C)(C)c5ccc(OC)cc5)[C@H]4C)c4ccccc43)c2)cc1	0.377
O=C1C2C=CC(C(O)c3ccccn3)N(Nc3ccccc3F)C2C(=O)N1c1ccccc1 (stereo not drawn)	0.432
O=P(NCC1(CC2(c3ccccc3)CO2)CC1)(c1ccccc1)c1ccccc1 (stereo not drawn)	-0.754

---

Catalogue of z-score readings, one per entry.
assay: FRG1 expression reporter modulators in myotubes – cell-based, C2C12 myotubes, firefly/Renilla luciferase, luminescence, FRG1 inhibition for FSHD, primary screen (AID 1084); conditions: FRG1 promoter luciferase, higher = more signal, called active from +8 up or from −8 down
value_kind: z-score

O=C1c2ccccc2[C@@]2(Cc3ccccc3N(Cc3ccccc3)C2=O)[C@H](c2ccc(CO)cc2)N1Cc1ccccc1C(F)(F)F -0.366
COC(=O)[C@@]1(Cc2ccc(OC)cc2)[C@H]2c3cc(C(=O)N(C)C)n(Cc4ccc(OC)c(OC)c4)c3C[C@H]2CN1C(=O)c1ccccc1 0.889
CC(C)(C)OC(=O)CC[C@@]1(C(=O)N2CCOCC2)N=C(c2ccc(OCCCO)cc2)O[C@@H]1c1ccccc1N=[N+]=[N-] 0.97
CN(C)CCCCCCNC(=O)[C@@H]1C[C@@H]2C(=O)NCC(=O)N2[C@@H]1c1cccc(OCCO)c1 2.12
COCCCNC(=O)[C@@]1(Cc2ccccc2I)c2ccccc2C(=O)N(Cc2ccccc2)[C@H]1c1ccc(CO)cc1 -4.46
C=CCN1C(=O)[C@]2(COC(c3ccc(OCCCO)cc3)=N2)Cc2ccccc21 -0.664
COc1ccc(C(=O)Nc2cccc(CN3C(=O)[C@@]4(O[C@@H](CCn5cc([C@H](O)c6ccccc6)nn5)[C@H]([Si](C)(C)c5ccc(OC)cc5)[C@H]4C)c4ccccc43)c2)cc1 -1.47

---

Catalogue of composite z-score readings, one per entry.
experiment: small molecules captured by biotinylated probe aFSTL3 – biochemical, small-molecule microarray, fluorescence 635/667, stem cell growth factor project, primary screen (AID 1064); conditions: higher = more signal;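 also: measures binding of the biotinylated anti-FSTL3 antibody to printed compounds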

compound	composite z-score
C=CCN1Cc2ccccc2C[C@@]2(COC(c3ccc(OCCCO)cc3)=N2)C1=O	1.12
C=CCN1C(=O)[C@]2(COC(c3ccc(OCCCO)cc3)=N2)Cc2ccccc21	0.842
[N-]=[N+]=Nc1ccccc1[C@@H]1OC(c2ccc(OCCCO)cc2)=N[C@]1(CCS(=O)(=O)c1ccccc1)C(=O)O	0.0639
CCCNC(=O)[C@@]1(c2ccc([N+](=O)[O-])cc2)CC(=O)N(CC23CC4CC(CC(C4)C2)C3)[C@@H]1c1ccc(CO)cc1I	0.188
CC(C)C(O)C1C=CC2C(=O)N(C)C(=O)C2N1N1CCCCC1 (stereo not drawn)	-0.201
COCCOC(=O)N1C(=O)[C@@]2(c3cc(C#CC4=CCCCC4)ccc31)[C@H](c1ccc(OCCO)cc1)N1[C@H](c3ccccc3)[C@H](c3ccccc3)OC(=O)[C@H]1[C@@H]2C(=O)Nc1nc2ccccc2s1	-0.368
C=C(C(=O)CC[C@H](OC(=O)c1cccnc1)c1ccccc1OCCO)C(C)C	0.0323
C=CCCN(CC#C[C@H]1Oc2ccccc2S(=O)(=O)N2CCC[C@@H]12)S(=O)(=O)c1ccc(C)cc1	-0.141
